- TARGET UNDER TEST: CYP2C9 (Homo sapiens)
- Sequence (P11712 whole entry): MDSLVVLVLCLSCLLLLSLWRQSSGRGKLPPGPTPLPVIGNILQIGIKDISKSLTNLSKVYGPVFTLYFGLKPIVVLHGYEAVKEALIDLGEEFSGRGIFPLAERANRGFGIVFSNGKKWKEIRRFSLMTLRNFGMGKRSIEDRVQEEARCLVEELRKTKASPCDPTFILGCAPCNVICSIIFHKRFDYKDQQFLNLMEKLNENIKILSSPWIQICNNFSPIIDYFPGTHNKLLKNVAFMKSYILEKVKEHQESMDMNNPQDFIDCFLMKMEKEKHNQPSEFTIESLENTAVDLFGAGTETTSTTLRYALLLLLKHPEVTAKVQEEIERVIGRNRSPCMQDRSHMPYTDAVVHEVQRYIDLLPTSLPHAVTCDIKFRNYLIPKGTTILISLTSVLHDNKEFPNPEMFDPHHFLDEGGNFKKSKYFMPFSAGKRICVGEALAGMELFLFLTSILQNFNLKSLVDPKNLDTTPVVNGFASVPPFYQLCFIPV
- MEASUREMENT DESCRIPTION: Inhibition of CYP2C9-catalyzed diclofenac 4′-hydroxylase in ultrapooled human liver microsomes
- Assay type: in vitro ADME
- TEST CONTEXT: IC50 (μM) No Preincubation, CYP2C9 diclofenac 4′-hydroxylase, 10 μM diclofenac, no preincubation
MEASURE: IC50

{"COMPOUND STRUCTURE STRING": "CCCCCn1nc(C(=O)NC23CC4CC(CC(C4)C2)C3)c2ccccc21", "MEASURE": "IC50", "VALUE REPORTED": "> 100 µM"}

---

- TARGET UNDER TEST: CYP2C19 (Homo sapiens, UniProt P33261)
- Sequence (P33261 whole entry): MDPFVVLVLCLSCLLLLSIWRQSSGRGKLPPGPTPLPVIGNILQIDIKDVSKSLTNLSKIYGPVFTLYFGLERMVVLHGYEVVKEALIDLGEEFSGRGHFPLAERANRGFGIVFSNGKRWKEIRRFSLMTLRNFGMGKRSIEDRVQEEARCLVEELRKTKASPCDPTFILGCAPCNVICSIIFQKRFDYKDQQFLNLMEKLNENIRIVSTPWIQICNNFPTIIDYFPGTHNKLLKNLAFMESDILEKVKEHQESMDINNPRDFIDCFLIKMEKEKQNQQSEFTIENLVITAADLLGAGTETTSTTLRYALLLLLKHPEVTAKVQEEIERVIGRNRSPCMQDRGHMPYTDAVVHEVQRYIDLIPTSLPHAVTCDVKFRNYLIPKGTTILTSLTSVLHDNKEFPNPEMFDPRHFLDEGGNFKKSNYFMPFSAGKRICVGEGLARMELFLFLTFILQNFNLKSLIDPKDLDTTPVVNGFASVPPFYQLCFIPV
- MEASUREMENT DESCRIPTION: Inhibition of CYP2C19-mediated [S]-mephenytoin 4′-hydroxylase in ultrapooled human liver microsomes
- Format: in vitro ADME
- TEST CONTEXT: read-out: IC50 (μM) With Preincubation, CYP2C19 [S]-mephenytoin 4′-hydroxylase; ultrapooled human liver microsomes; 30-min preincubation with NADPH

{"COMPOUND": "CCCCCn1nc(C(=O)NC23CC4CC(CC(C4)C2)C3)c2ccccc21 [APINACA]", "IC50": "> 100 µM"}

---

- TARGET UNDER TEST: CYP2B6 (Homo sapiens)
- Sequence (P20813 whole entry): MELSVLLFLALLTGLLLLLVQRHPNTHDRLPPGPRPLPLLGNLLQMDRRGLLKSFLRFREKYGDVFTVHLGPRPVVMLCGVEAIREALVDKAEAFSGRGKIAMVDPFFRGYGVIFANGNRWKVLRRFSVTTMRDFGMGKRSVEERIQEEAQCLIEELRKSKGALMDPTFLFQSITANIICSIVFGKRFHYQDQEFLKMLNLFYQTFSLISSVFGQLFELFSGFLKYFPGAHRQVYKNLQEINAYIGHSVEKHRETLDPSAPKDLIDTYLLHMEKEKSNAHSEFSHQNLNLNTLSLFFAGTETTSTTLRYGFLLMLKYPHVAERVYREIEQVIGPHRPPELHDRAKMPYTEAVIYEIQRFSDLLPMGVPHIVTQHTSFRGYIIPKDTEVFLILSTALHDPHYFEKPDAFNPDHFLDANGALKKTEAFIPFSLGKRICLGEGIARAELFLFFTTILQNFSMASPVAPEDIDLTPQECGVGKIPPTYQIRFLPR
- MEASUREMENT DESCRIPTION: Inhibition of CYP2B6-mediated bupropion hydroxylase in ultrapooled human liver microsomes
- Format: in vitro ADME
pIC50: −log10 of the molar value.
MEASURE: pIC50

{"COMPOUND STRUCTURE STRING": "CCCCCn1nc(C(=O)NC23CC4CC(CC(C4)C2)C3)c2ccccc21", "MEASURE": "pIC50", "VALUE REPORTED": "< 4.00"}

---

- TARGET UNDER TEST: OATP1B1 (Homo sapiens)
- Construct: host or cells: HEK293 (transient overexpression)
- Sequence (Q9Y6L6 1-691): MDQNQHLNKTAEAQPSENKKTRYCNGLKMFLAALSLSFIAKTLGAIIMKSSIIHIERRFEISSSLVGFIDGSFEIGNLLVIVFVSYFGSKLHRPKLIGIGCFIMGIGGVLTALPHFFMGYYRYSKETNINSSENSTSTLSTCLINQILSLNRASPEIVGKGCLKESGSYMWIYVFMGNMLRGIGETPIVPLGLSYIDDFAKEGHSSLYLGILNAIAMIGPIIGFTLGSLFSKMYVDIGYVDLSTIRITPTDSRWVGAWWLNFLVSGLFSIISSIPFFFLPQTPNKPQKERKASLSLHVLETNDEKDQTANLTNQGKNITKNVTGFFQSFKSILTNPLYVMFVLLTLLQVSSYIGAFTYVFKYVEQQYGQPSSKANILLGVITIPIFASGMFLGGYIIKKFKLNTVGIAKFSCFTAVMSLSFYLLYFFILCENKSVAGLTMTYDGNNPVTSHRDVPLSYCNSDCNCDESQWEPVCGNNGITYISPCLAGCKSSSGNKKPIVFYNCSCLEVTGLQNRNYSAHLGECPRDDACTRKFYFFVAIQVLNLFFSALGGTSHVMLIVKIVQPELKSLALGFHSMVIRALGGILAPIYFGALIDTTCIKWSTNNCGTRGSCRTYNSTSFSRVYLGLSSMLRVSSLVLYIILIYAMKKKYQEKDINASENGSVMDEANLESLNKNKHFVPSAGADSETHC
- MEASUREMENT DESCRIPTION: Uptake of [3-H]estrone-3-sulfate in HEK293-OATP1B1 cells
- Assay type: in vitro ADME
- Procedure: To examine the effects of APINACA and typical inhibitors on transporter activity, the uptake of a probe substrate into HEK293 cells overexpressing the respective solute carrier transporters was measured in the presence of APINACA (final concentrations of 0–250 μM) or typical inhibitors for 5 min. […]

{"COMPOUND STRUCTURE STRING": "CCCCCn1nc(C(=O)NC23CC4CC(CC(C4)C2)C3)c2ccccc21", "IC50": "> 250 µM"}

---

- TARGET UNDER TEST: OCT1 (Homo sapiens)
- Sequence (O15245 whole entry): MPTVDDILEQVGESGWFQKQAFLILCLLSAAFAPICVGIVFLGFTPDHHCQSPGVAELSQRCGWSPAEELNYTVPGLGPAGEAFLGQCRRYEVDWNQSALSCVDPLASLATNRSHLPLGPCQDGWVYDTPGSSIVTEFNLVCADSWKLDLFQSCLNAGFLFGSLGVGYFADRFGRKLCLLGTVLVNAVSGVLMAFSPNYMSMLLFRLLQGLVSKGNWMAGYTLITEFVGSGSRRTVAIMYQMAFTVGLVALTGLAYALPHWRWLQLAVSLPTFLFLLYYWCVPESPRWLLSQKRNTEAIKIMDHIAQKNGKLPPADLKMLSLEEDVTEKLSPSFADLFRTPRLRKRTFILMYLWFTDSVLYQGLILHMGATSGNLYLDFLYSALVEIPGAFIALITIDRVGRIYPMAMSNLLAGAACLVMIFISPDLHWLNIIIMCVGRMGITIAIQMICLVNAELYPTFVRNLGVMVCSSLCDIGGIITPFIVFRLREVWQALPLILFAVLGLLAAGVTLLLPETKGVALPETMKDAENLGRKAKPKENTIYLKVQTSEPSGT
- MEASUREMENT DESCRIPTION: Uptake of [3-H]methyl-4-phenylpyridinium in HEK293-OCT1 cells

{"COMPOUND STRUCTURE STRING": "CCCCCn1nc(C(=O)NC23CC4CC(CC(C4)C2)C3)c2ccccc21", "TARGET UNDER TEST": "OCT1 (Homo sapiens)", "IC50": "> 250 µM"}

---

- TARGET UNDER TEST: UniProtKB P08183
- Sequence (P08183 whole entry): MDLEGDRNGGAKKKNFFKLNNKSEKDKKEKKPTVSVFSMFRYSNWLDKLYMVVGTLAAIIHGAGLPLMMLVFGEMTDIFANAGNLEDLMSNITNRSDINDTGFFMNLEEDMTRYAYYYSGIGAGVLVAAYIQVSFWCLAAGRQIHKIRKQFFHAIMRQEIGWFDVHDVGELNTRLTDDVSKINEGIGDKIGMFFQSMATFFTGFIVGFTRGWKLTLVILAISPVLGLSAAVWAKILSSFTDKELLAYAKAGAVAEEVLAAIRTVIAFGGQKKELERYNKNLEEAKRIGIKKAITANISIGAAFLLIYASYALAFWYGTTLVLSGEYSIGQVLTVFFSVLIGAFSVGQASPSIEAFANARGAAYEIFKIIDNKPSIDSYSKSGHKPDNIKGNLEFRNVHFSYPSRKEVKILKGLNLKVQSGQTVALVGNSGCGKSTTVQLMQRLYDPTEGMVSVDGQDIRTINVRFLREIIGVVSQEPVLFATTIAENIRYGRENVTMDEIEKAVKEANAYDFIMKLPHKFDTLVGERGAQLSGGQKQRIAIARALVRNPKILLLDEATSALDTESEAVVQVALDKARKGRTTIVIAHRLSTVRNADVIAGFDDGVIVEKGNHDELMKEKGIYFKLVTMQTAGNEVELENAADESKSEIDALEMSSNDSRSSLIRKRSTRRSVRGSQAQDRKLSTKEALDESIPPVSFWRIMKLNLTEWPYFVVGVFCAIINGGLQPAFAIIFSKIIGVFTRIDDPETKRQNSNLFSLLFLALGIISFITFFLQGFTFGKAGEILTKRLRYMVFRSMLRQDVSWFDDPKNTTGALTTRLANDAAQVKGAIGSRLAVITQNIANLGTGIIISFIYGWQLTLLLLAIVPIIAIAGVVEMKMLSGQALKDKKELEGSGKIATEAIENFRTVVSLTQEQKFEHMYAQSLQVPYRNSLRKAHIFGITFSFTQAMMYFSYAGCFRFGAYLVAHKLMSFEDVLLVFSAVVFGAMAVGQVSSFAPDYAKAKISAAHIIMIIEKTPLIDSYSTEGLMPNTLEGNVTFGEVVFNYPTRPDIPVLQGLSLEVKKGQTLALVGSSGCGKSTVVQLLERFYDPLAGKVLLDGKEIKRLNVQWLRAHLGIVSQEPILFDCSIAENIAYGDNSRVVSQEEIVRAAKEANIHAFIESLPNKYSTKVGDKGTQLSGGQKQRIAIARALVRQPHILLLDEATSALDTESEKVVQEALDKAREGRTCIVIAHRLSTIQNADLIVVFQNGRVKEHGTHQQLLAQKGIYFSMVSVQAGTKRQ
- MEASUREMENT DESCRIPTION: B to A transport of [3-H]digoxin in LLC-PK1-MDR1 cells

{"COMPOUND STRUCTURE STRING": "CCCCCn1nc(C(=O)NC23CC4CC(CC(C4)C2)C3)c2ccccc21", "IC50": "> 100 µM"}

---

- TARGET UNDER TEST: OAT1 (Homo sapiens, UniProt Q4U2R8)
- Sequence (Q4U2R8 whole entry): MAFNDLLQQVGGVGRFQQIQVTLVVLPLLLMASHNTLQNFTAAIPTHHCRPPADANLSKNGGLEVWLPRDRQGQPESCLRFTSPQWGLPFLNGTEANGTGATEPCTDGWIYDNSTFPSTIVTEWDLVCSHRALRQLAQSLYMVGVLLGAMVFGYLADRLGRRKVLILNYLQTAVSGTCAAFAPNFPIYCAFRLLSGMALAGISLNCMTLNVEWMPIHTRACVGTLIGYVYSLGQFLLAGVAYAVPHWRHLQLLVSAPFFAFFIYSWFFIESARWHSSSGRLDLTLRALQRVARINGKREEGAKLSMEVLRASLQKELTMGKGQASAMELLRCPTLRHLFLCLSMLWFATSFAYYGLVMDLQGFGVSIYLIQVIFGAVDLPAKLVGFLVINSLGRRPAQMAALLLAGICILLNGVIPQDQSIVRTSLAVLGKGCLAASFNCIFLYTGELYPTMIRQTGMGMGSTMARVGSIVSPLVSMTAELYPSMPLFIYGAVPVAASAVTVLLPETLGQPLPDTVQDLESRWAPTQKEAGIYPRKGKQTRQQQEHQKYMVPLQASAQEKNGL
- MEASUREMENT DESCRIPTION: Uptake of [3-H]para-aminohippuric acid in HEK293-OAT1 cells

{"COMPOUND STRUCTURE STRING": "CCCCCn1nc(C(=O)NC23CC4CC(CC(C4)C2)C3)c2ccccc21", "IC50": "> 250 µM"}

---

- TARGET UNDER TEST: CYP2C9 (Homo sapiens)
- MEASUREMENT DESCRIPTION: Inhibition of CYP2C9-catalyzed diclofenac 4′-hydroxylase in ultrapooled human liver microsomes
- Type: in vitro ADME
- TEST CONTEXT: IC50 (μM) With Preincubation, CYP2C9 diclofenac 4′-hydroxylase, 30-min preincubation with NADPH

{"COMPOUND": "CCCCCn1nc(C(=O)NC23CC4CC(CC(C4)C2)C3)c2ccccc21 [APINACA]", "IC50": "85 µM"}

---

- TARGET UNDER TEST: UGT1A9 (Homo sapiens)
- Sequence (O60656 26-530): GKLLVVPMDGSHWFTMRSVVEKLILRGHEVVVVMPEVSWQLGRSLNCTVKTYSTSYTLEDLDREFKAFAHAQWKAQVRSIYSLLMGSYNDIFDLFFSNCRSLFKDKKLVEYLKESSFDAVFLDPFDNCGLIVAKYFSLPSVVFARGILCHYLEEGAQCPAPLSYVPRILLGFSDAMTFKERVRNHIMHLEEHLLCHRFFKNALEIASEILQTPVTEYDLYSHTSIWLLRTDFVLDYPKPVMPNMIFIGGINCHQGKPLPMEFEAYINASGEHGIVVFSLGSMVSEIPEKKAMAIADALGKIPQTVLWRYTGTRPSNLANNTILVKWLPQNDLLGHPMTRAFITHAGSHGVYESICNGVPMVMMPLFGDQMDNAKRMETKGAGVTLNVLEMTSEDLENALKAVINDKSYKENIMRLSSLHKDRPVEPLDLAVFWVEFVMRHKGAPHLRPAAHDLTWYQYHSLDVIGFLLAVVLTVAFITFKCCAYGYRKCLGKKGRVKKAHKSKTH
- MEASUREMENT DESCRIPTION: Enzyme kinetic analysis of UGT1A9 inhibition (Dixon plot) in human liver microsomes
- Assay type: in vitro ADME
- Parameters: […]; tissue Corning Life Sciences
- Experimental: The reaction was stopped by adding 100 μL of ice cold acetonitrile containing propofol glucuronide (internal standard), and the mixtures were centrifuged at 13,000× g for 4 min. 12.5 (Systat Software, Inc.; San Jose, CA, USA). […] 1.1 (Systat Software, Inc.).
MEASURE: Ki (µM)

{"COMPOUND STRUCTURE STRING": "CCCCCn1nc(C(=O)NC23CC4CC(CC(C4)C2)C3)c2ccccc21", "VALUE REPORTED": 5.9}

---

- TARGET UNDER TEST: UniProt:P19224
- Sequence (P19224 27-532): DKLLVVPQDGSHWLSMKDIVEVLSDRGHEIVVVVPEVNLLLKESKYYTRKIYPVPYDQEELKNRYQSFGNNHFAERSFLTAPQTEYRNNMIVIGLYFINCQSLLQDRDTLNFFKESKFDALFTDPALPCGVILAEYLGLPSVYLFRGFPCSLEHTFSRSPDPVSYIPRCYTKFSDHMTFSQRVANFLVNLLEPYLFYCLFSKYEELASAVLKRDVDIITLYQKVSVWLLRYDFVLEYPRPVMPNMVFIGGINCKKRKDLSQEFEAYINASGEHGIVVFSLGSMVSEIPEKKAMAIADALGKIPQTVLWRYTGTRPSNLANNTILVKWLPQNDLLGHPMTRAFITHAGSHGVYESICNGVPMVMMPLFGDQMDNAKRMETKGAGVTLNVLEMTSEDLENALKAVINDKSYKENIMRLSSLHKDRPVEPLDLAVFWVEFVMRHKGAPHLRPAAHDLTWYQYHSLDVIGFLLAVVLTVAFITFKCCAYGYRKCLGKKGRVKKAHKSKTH
- MEASUREMENT DESCRIPTION: Inhibition of UGT1A6-catalyzed N-acetylserotonin glucuronidation in human liver microsomes
pIC50: −log10 of the molar value.
MEASURE: pIC50

{"COMPOUND STRUCTURE STRING": "CCCCCn1nc(C(=O)NC23CC4CC(CC(C4)C2)C3)c2ccccc21", "VALUE REPORTED": "< 4.00"}

---

- TARGET UNDER TEST: UGT1A9 (Homo sapiens, UniProt O60656)
- MEASUREMENT DESCRIPTION: Inhibition of UGT1A9-catalyzed mycophenolic acid glucuronidation in human liver microsomes
- Type: in vitro ADME
- Set-up: […]; tissue Corning Life Sciences
- TEST CONTEXT: IC50 UGT1A9 mycophenolic acid glucuronidation, without preincubation, pooled human liver microsomes; 0.2 µM mycophenolic acid
pIC50: −log10 of the molar value.
MEASURE: pIC50

{"MOLECULE": "CCCCCn1nc(C(=O)NC23CC4CC(CC(C4)C2)C3)c2ccccc21 [APINACA]", "MEASURE": "pIC50", "VALUE REPORTED": 4.49}
